# credit: PubChem BioAssay

Overview of reported viability across a group of compounds:
# assay.remarks: MRP1 drug-resistance reversers in H69AR cells – cell-based, doxorubicin co-treatment, pilot screen (AID 601)
# assay.context: H69AR cells + 2 uM doxorubicin, CellTiter-Glo, 72 h; measured here: viability with 2 uM doxorubicin; at 10 µM; stronger effect = lower value

compound	viability, %
O=C(CN1CCN(Cc2ccc(F)cc2Cl)C1=O)NCCCN1CCOCC1	87.8
CCOC(=O)c1ccc2[nH]c3c(c2c1)CN(C)CC3	85.8
CN1CCN(C(=O)C2CCN(S(=O)(=O)c3ccc4c(c3)oc(=O)n4C)CC2)CC1	92.4
CCOc1ccc(NC2c3ccccc3C(=O)N2Cc2ccco2)cc1 (centres undefined)	98.8
CCCCCOc1ccc(C2NC(=O)NC2=O)cc1 (centres undefined)	88.1
COc1c(S(=O)(=O)n2nc(C)cc2C)ccc(Cl)c1Cl	99
CCOCC(=O)Nc1nc2c(s1)C(=O)CC(C)(C)C2	90.3
COc1cccc(C2CC(c3ccc(F)cc3)Nc3nc(N)nn32)c1 (centres undefined)	99.9
COc1cc(NC(=O)CN(c2cc(C)cc(C)c2)S(=O)(=O)c2c(C)noc2C)cc(OC)c1	84.3
CC(C(=O)Oc1ccc2c(c1)OCO2)N1C(=O)c2ccccc2C1=O (centres undefined)	94.4
COc1ccc(C2CC(=O)C(C=NCCCN3CCOCC3)=C(O)C2)cc1 (centres undefined)	86.5
COc1ccc(NC(=O)NCCN2C(=O)C3C4C=CC(C4)C3C2=O)cc1 (centres undefined)	97.5
Cc1cccc(-n2nc3c(c2NC(=O)CCC2CCCCC2)CS(=O)C3)c1C (centres undefined)	89.3
COc1ccc(-c2nc3c(n2O)CCC/C3=N\O)cc1	81.5
CCN(CC)C(=O)Oc1ccccc1NC(C)=O	90.7
CCCN(CCC)CCNC(=O)c1cc2c(=O)n(C)c3ccccc3c2n1C	64
Cc1ccc(-c2noc(CN3CCN(c4ccccc4F)CC3)n2)cc1	95.5
COc1nnc(-c2ccc(C)c(S(=O)(=O)NCCO)c2)c2ccccc12	90.3
CCOC(=O)Cn1c(CCC(=O)O)ccc1-c1ccc(F)cc1	92.6
Cc1cc(OCC(=O)NCCO)cc(C)c1Cl	87.6
Cc1nnc(NC(=O)c2ccco2)s1	96.3
CC1=C(C(=O)OC2CCCCCC2)C(c2ccc(C)o2)C2=C(CCCC2=O)N1 (centres undefined)	101
CC(NC(=O)C1CC1)C(c1cccs1)N1CCN(c2ccccc2)CC1 (centres undefined)	93.8
CCCc1cc(=O)oc2cc(C)cc(OC(=O)c3ccco3)c12	86.5
